Origin of measurements: a melting point compilation (Tetko et al.; mined from patent text by program, amines drawn as free bases though some values may be those of a salt)

endpoint.name: melting point (°C)

a: O=C(Nc1cc2ccccc2cn1)c1ncccc1NCc1ccncc1
b: CCCCCC1=CCC(c2cc(F)c(C(=O)O)c(F)c2)C=C1 (stereo not given)
Data request: Problem: Given the entries a and b , determine which has the lower reported melting point. Answer with the label corresponding to your selection.
Data returned: b

---

endpoint.name: melting point

Data request: Request the reported melting point associated with O=C1c2ccccc2CN1CSc1ccncc1
Data returned: 131 to 132 °C

Data request: Could you share which melting point value was measured for CC(C)(C)OC(=O)c1sc(Nc2ccc(Cl)cc2)c2c1CCc1cnoc1-2 ?
Data returned: 197 to 198 °C

Data request: Form field: reported melting point of Cc1nc2cc(Br)ccc2c(=O)n1C1CCC(=O)NC1=O (stereo not given)
Data returned: 315 to 317 °C

Data request: Which melting point value belongs to Cc1nn(-c2ccc(C(F)(F)F)cn2)cc1CCCO ?
Data returned: 103 to 104 °C

Data request: Please give the measured melting point for this molecule: CCOC(=O)N[C@@H]1CCc2c(ccc(OCc3ccccc3)c2N(C)Cc2ccccc2)[C@H]1O (relative stereo)
Data returned: 119 to 120 °C

Data request: Item under review: CC(C)[C@H](OCc1c(F)cccc1F)[C@H]1[C@H]([N+](=O)[O-])[C@H](c2ccccc2)N[C@@H]1C(=O)NCC(=O)O . Reported melting point?
Data returned: 80 to 81 °C

Data request: Field request: melting point | item: O=C(NCCCO)c1cc2ccccc2[nH]1
Data returned: 152 to 156 °C

Data request: Find the recorded melting point belonging to COC1=CC(O)=CC(OC)C1(OC)c1cc2cccnc2[nH]1 (stereo not given) and report it.
Data returned: 174 to 176 °C

Data request: Entry under review: OCC1CC(O)C(n2cnc3c(-n4cccc4)ncnc32)O1 (stereo not given) . Reported melting point?
Data returned: 175 to 176 °C

Data request: Which melting point value belongs to N=C1NN(c2ccccc2)CC1CN1CCOCC1 (stereo not given) ?
Data returned: 204 to 205 °C

---

melting point: recorded values

CN1CC=C(c2c[nH]c3ccc(N)cc23)CC1 | 200 to 203 °C
CN(CCOc1ccc(CC2SC(=O)NC2=O)cc1)C(=O)Nc1ccccc1 (stereo not given) | 88 to 90 °C
O=C(O)c1cc(O)c2c3c(cc(Br)c2n1)S(=O)c1ccccc1-3 (stereo not given) | 289 to 290 °C
O=C(O)c1cccc(-c2ccc3c(c2)N(Cc2cccc(Cl)c2Cl)CC3)c1 | 185 to 186 °C

API: the following record is the query input.
Data request: Which melting point is listed for Cc1nc(N2CCc3ccsc3CC2)c([N+](=O)[O-])c(=O)[nH]1 ?
Data returned: > 200 °C

---

Catalogue of melting point readings, one per entry.

Cc1nc(C#Cc2ccccc2)n(C)c1-c1nc(C2CC2)no1 | 88 °C
N#C[C@@H](Cc1ccccc1)Oc1c(Br)cc(-c2c3ccccc3c(Br)c3sc4ccccc4c23)cc1Br | 160 to 165 °C
Cc1ccc(S(=O)(=O)NCCCN(CCN(CCCNS(=O)(=O)c2ccc(C)cc2)S(=O)(=O)c2ccc(C)cc2)S(=O)(=O)c2ccc(C)cc2)cc1 | 141 to 142 °C
COc1ccc2[nH]c(=O)c3cccn3c2n1 | 250 °C
O=S(=O)(c1ccccc1)C1CCCO1 (centres undefined) | 55.9 to 56.8 °C
O=[N+]([O-])c1c(Cl)cccc1-c1nc2ccccc2[nH]1 | > 260 °C
N=C(NC(=O)NCCCCCCNC(=O)NC(=N)Nc1ccc(Cl)cc1)Nc1ccc(Cl)cc1 | 186 to 190 °C
CCc1ccc(CCOc2ccc(C=C3SC(=O)NC3=O)cc2)nc1 | 166 to 167 °C

The record that follows has no melting point shown yet.
Data request: Returns the measured melting point for the input compound. Input: CC1CCCC(C)N1Cc1ccc2cc(NC(=O)c3ccc(-c4ccccc4)cc3)ccc2n1 (centres undefined)
Data returned: 180 to 181 °C
